Attribute: fold induction at 0.3 µM
System: T-cell
Test: CD25 cell surface staining on T-cells co-stimulated with anti-CD3 and anti-CD28 antibody (Biological Example 2)
Format: cell-based, human
Settings: Homo sapiens, T-cell, 0.3 μM compound; primary human total T-cells; baseline = anti-CD3/anti-CD28 stimulated cells without inhibitor; read-out: CD25 staining, Anti-CD3/Anti-CD28 stimulation, fold change over baseline

# COMPOUND, fold induction at 0.3 µM
data = [
    ("C[C@H](Cc1nncn1C)c1cccc(N2Cc3c(cc([C@@H](C)N4CC[C@H](F)C4)cc3C(F)(F)F)C2=O)c1", "1.01 to 1.3"),
    ("C[C@H](Cc1nncn1C)c1cccc(N2Cc3c(cc(CN4CC[C@@H](F)C4)cc3C(F)(F)F)C2=O)c1", "1.01 to 1.3"),
    ("C[C@H](Cc1nocc1C(F)(F)F)c1cccc(N2Cc3c(cc(CN4CC[C@H](F)C4)cc3C(F)(F)F)C2=O)c1", "1.01 to 1.3"),
    ("C[C@H](O)CNc1cc([C@H](C)Cc2nncn2C)cc(N2Cc3c(cccc3C(F)(F)F)C2=O)n1", "1.01 to 1.3"),
    ("Cc1conc1CC1(c2cccc(NC(=O)c3cc(CN4CCC5(CC5)C4)nc(C4CC4)n3)c2)COC1", "1.31 to 1.5"),
    ("Cn1cnnc1C(F)(F)[C@](C)(F)c1cccc(N2Cc3c(cc(-c4cncc(F)c4)cc3C(F)(F)F)C2=O)c1", "< 1"),
    ("C[C@H](Cc1nncn1C)c1cccc(N2Cc3c(cc(CN4CC(O)C(F)(F)C4)cc3C(F)(F)F)C2=O)c1 (stereo partly drawn)", "1.01 to 1.3"),
    ("CNCc1ccc(C(=O)Nc2cccc([C@H](C)Cc3nncn3C)c2)nc1C1CC1", "1.01 to 1.3"),
    ("C[C@H](Cc1nncn1C)c1cccc(N2Cc3c(cc(C4CC4)nc3C3CC3)C2=O)c1", "1.01 to 1.3"),
    ("Cn1cnnc1[C@@H](F)[C@](C)(F)c1cccc(N2Cc3c(cc(C4CC4)cc3C(F)(F)F)C2=O)c1 (stereo in doubt)", "1.01 to 1.3"),
    ("Cn1cnnc1CC1(c2cccc(N3Cc4c(cc(CC5CCCO5)cc4C(F)(F)F)C3=O)c2)COC1 (stereo not drawn)", "1.01 to 1.3"),
    ("Cn1cnnc1CC1(c2cccc(NC(=O)c3cc(Cn4ccnn4)nc(C4CC4)n3)c2)COC1", "1.01 to 1.3"),
    ("Cn1cnnc1CC1(c2cccc(N3Cc4c(cc(CN5C[C@@H](F)[C@@H](F)C5)cc4C(F)(F)F)C3=O)c2)COC1", "1.31 to 1.5"),
    ("Cn1cnnc1C[C@H](c1cccc(N2Cc3c(cccc3C(F)(F)F)C2=O)c1)C(F)(F)F [Compound 471a]", "1.01 to 1.3"),
    ("Cn1cnnc1C(F)(F)[C@](C)(F)c1cccc(N2Cc3c(cc(CN4CC(C(F)F)C4)cc3C(F)(F)F)C2=O)c1", "1.31 to 1.5"),
    ("Cn1cnnc1CC1(c2cccc(N3Cc4c(cc(CN5CCOCC5)cc4C(F)(F)F)C3=O)c2)COC1", "1.31 to 1.5"),
    ("Cc1conc1CC1(c2cccc(NC(=O)c3cc(CN4CCC5(CC5)C4)cc(C4CC4)n3)c2)COC1", "1.31 to 1.5"),
    ("Cc1cc(C(=O)Nc2cccc([C@]3(Cc4nncn4C)CCOC3)c2)nc(C2CC2)n1 (single isomer, unassigned) [Compound 534a]", "1.01 to 1.3"),
    ("CC(O)c1cc2c(c(C(F)(F)F)c1)CN(c1cccc(C3(Cc4nncn4C)COC3)c1)C2=O (stereo not drawn)", "1.01 to 1.3"),
    ("C[C@H]1CN(C)CCN1c1cc2c(c(C(F)(F)F)c1)CN(c1cccc(C3(Cc4nncn4C)COC3)c1)C2=O", "1.01 to 1.3"),
    ("C[C@@H](c1cc2c(c(C(F)(F)F)c1)CN(c1cccc(C3(Cc4nncn4C)COC3)c1)C2=O)N1CC[C@H](F)C1", "1.31 to 1.5"),
    ("Cn1cnnc1C[C@@]1(c2cccc(N3Cc4c(cc(CN5CCC6(CC6)C5)cc4C(F)(F)F)C3=O)c2)CCOC1 (single isomer, unassigned) [Compound 517a]", "1.01 to 1.3"),
    ("Cn1cnnc1C(F)(F)[C@](C)(F)c1cccc(N2Cc3c(cc(CN4CC[C@@H](F)C4)cc3C(F)(F)F)C2=O)c1", "1.31 to 1.5"),
    ("C[C@H](c1cc2c(c(C(F)(F)F)c1)CN(c1cccc(C3(Cc4nncn4C)COC3)c1)C2=O)N1CC(C)(F)C1 [Compound 543b]", "1.51 to 1.75"),
    ("Cn1cnnc1C(F)(F)C1(c2cccc(N3Cc4c(cc(CN5CC[C@H](F)C5)cc4C(F)(F)F)C3=O)c2)CC1", "1.01 to 1.3"),
    ("Cn1cnnc1CC1(c2cccc(N3Cc4c(cc(CN5CCC(F)(F)C5)cc4C(F)(F)F)C3=O)c2)COC1", "1.01 to 1.3"),
    ("Cn1cnnc1CC1(c2cccc(N3Cc4c(cc(CN5CC[C@H](F)C5)cc4C4CC4)C3=O)c2)COC1", "1.31 to 1.5"),
    ("CCOc1cc(N2Cc3c(cc(CN4CC[C@H](F)C4)cc3C(F)(F)F)C2=O)cc(C2(Cc3nncn3C)COC2)c1", "1.31 to 1.5"),
    ("C[C@H](Cc1nncn1C)c1cccc(N2Cc3c(cc([C@H](C)N4CC(O)C4)cc3C(F)(F)F)C2=O)c1", "1.01 to 1.3"),
    ("Cn1cnnc1CC1(c2cccc(NC(=O)c3nc(C4CC4)cs3)c2)COC1", "1.01 to 1.3"),
]
